Origin of the recorded values: ChEMBL document CHEMBL4321825

- Test system: Interleukin-1 receptor-associated kinase 4 (Homo sapiens, UniProt Q9NWZ3)
- Sequence (Q9NWZ3 whole entry): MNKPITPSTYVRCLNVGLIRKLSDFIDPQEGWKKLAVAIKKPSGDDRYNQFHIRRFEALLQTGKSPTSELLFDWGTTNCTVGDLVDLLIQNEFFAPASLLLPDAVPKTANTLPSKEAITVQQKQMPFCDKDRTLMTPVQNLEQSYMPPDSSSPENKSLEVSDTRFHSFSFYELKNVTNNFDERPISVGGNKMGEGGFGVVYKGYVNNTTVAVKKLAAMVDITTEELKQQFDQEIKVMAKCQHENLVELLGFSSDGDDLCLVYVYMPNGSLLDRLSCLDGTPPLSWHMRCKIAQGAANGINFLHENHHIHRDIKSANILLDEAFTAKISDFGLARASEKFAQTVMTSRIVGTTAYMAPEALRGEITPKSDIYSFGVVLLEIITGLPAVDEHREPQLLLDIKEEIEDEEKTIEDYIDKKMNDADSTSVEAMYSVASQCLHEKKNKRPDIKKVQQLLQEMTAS
- Measurement description: Inhibition of IRAK4 (unknown origin) in presence of 5 mM ATP by enzymatic assay
Please go through the items and note down their IC50.
Report the figure in nM without appending any unit label.

If you can, please state the reported IC50 value of `COC(=O)N1CCN([C@H]2CC[C@H](Nc3nc(Nc4cnn(C)c4)nc4ccc(C#N)nc34)CC2)CC1` .
5

If you can, please state the reported IC50 value of COC(=O)N1CCN([C@H]2CC[C@H](Nc3nc(Nc4cnn(C)c4)nc4ccc(C(C)C#N)nc34)CC2)CC1 (stereo partly drawn) .
6

If you can, please state the reported IC50 value of `CC(=O)N1CCN([C@H]2CC[C@H](Nc3ncnc4ccc(C#N)cc34)CC2)CC1` .
122

If you can, please state the reported IC50 value of `COC(=O)N1CCN([C@H]2CC[C@H](Nc3nc(Nc4cnn(C)c4)nc4ccc(C)nc34)CC2)CC1` .
9

If you can, please state the reported IC50 value of `Cn1cc(Nc2nc(N[C@H]3CC[C@H](N4CCOCC4)CC3)c3cc(C#N)ccc3n2)cn1` .
2

If you can, please state the reported IC50 value of `COC(=O)N1CCN([C@H]2CC[C@H](Nc3nc(Nc4cnn(C)c4)nc4ccc(C(C)(C)C#N)nc34)CC2)CC1` .
69

If you can, please state the reported IC50 value of `COC(=O)N1CCN([C@H]2CC[C@H](Nc3nc(Nc4cnn(C)c4)nc4ccc(C#N)cc34)CC2)CC1` .
1

If you can, please state the reported IC50 value of `COC(=O)N1CCN([C@H]2CC[C@H](Nc3ncnc4ccc(C)cc34)CC2)CC1` .
38

If you can, please state the reported IC50 value of `CC(=O)N1CCN([C@H]2CC[C@H](Nc3nc(Nc4cnn(C)c4)nc4ccc(C#N)cc34)CC2)CC1` .
1

If you can, please state the reported IC50 value of `COC(=O)N1CCN([C@H]2CC[C@H](Nc3ncnc4ccc(C)nc34)CC2)CC1` .
279

If you can, please state the reported IC50 value of `COC(=O)N1CCN([C@H]2CC[C@H](Nc3nc(Nc4cnn(C)c4)nc4ccc(C5(C#N)CC5)nc34)CC2)CC1` .
17

If you can, please state the reported IC50 value of `COC(=O)N1CCN([C@H]2CC[C@H](Nc3nc(Nc4cnn(C)c4)nc4ccc(CC#N)nc34)CC2)CC1` .
4

If you can, please state the reported IC50 value of `N#Cc1ccc2ncnc(N[C@H]3CC[C@H](N4CCOCC4)CC3)c2c1` .
46
